Origin of the recorded values: paper PMC11062922

potency estimated from few doses by entry:
Test system: GAK
Design: species or system human, MV4-11 + K-562 + COLO205 + SK-N-BE2 + OVCAR-8
Conditions: read-out: apparent Kd; compound concentrations:100 nM and 1000 nM (sheet 'Samples'); n = 1
MEASUREMENT TYPE: potency estimated from few doses (nM)

COMPOUND	MEASUREMENT TYPE	UNIT ANNOTATION	REPORTED MEASUREMENT
c1ccc(-c2n[nH]cc2-c2ccnc3ccccc23)nc1 [GW271431X]	potency estimated from few doses	nM	465
Cc1ccc2c(-c3ccnc(Nc4ccc(C(F)(F)F)cc4)n3)cnn2n1 [GW819776X]	potency estimated from few doses	nM	1400
CN(C)CCOc1ccc(-c2cc(-c3c[nH]nc3-c3ccccn3)ccn2)cc1 [GW835314X]	potency estimated from few doses	nM	151
COc1cc2ncn(-c3cc(OCCCc4ccccc4)c(C(N)=O)s3)c2cc1OC [GSK205189A]	potency estimated from few doses	nM	663
CN1CCC(n2cnc(-c3ccc(F)cc3)c2-c2ccnc(N)n2)CC1	potency estimated from few doses	nM	1350
Cc1cccc(Nc2nc(N[C@H]3CCNC3)ncc2C(N)=O)c1.Cl [GSK2197149A]	potency estimated from few doses	nM	343
Cn1c(=O)c(-c2ccccc2Cl)cc2cnc(NC3CCOCC3)nc21	potency estimated from few doses	nM	695
CNS(=O)(=O)c1ccc(N(C)C)c(Nc2ncnc3cc(OC)c(OC)cc23)c1	potency estimated from few doses	nM	28.1
c1ccc(-c2n[nH]cc2-c2ccnc(-c3ccc(OCCn4ccnc4)cc3)c2)nc1 [GW711782X]	potency estimated from few doses	nM	1350
Cl.Cn1c(=O)c(Cc2ccc(F)cc2F)cc2cnc(NC3CCOCC3)nc21	potency estimated from few doses	nM	434
C=CC(=O)Nc1cc2c(Nc3ccc(F)c(Cl)c3)ncnc2cc1OCCCN1CCOCC1 [GW781483X]	potency estimated from few doses	nM	1450

----------
# potency estimated from few doses per record follows
Tested on: STK26
Set-up: species or system human, MV4-11 + K-562 + COLO205 + SK-N-BE2 + OVCAR-8
Conditions: read-out: apparent Kd; compound concentrations:100 nM and 1000 nM (sheet 'Samples'); n = 1
MEASUREMENT TYPE: potency estimated from few doses (µM)

MOLECULE	MEASUREMENT TYPE	UNIT ANNOTATION	REPORTED MEASUREMENT
Nc1c(C(=O)c2ccccc2)cnn1-c1ccc(F)cc1 [RO1151246-000]	potency estimated from few doses	µM	1.89
CC(C)NCC(Cc1ccccc1)NC(=O)c1cc(Br)c(-c2ccnc3[nH]ccc23)s1.CC(C)NCC(Cc1ccccc1)NC(=O)c1cc(Br)c(-c2ccnc3[nH]ccc23)s1.Cl.Cl (centres unmarked) [GSK1383281A]	potency estimated from few doses	µM	1.94
O=C1NC(=O)C(c2ccccc2)=C1Nc1cccc(O)c1 [SB-390534]	potency estimated from few doses	µM	1.58
O=C(Nc1n[nH]c2nc(-c3cccc(O)c3)ccc12)C1CC1 [SB-711805]	potency estimated from few doses	µM	2.27
Nc1nc(-c2ccc(F)cc2)c(-c2ccc3ncccc3n2)s1 [GW785804X]	potency estimated from few doses	µM	2.33
NS(=O)(=O)c1ccc(Nc2ncc(-c3ccccc3)o2)cc1 [GW572399X]	potency estimated from few doses	µM	1.4
COC(=O)Nc1nc2ccc(Oc3ccc(NC(=O)Nc4cc(C(F)(F)F)ccc4F)cc3)cc2n1C.Cl [GW692089A]	potency estimated from few doses	µM	1.76
Cc1ccc(NC(=O)CC2CC2)cc1-c1ccc(C(=O)NCC2CC2)cc1 [GW796920X]	potency estimated from few doses	µM	1.45

----------
Test system: RPS6KA6
Parameters: species or system human, MV4-11 + K-562 + COLO205 + SK-N-BE2 + OVCAR-8
Details: read-out: apparent Kd; compound concentrations:100 nM and 1000 nM (sheet 'Samples'); n = 1
Overview of reported potency estimated from few doses across a group of compounds:
MEASUREMENT TYPE: potency estimated from few doses (nM)

COMPOUND	UNIT ANNOTATION	REPORTED MEASUREMENT
Cc1cnc(Nc2ccc(F)cc2Cl)nc1-c1c[nH]c(C(=O)N[C@H](CO)c2cccc(Cl)c2)c1 [Vertex11e]	nM	628
Cn1cc(C2=C(c3c4n(c5ccccc35)CCC(CN)CC4)C(=O)NC2=O)c2ccccc21 (stereo not shown) [RO0319371-000]	nM	342
CS(=O)(=O)CCn1c(=O)c(Oc2ccc(F)cc2F)cc2cnc(NC3CCOCC3)nc21 [RO5027956-000]	nM	506
CN1C[C@@H]2Cn3c(c(C4=C(c5cn(C)c6ccccc56)C(=O)NC4=O)c4ccccc43)C[C@H]2C1.Cl [RO0320234-001]	nM	215
O=C1NC(=O)C(N2CCc3ccccc32)=C1c1ccccc1Cl [SB-373598]	nM	125
C[C@@H]1CCNC(=O)c2cc3ccc(C(=O)Nc4nc5ccccc5n4CCCN(C)C)cc3n21 [BI00645435]	nM	5.39
CN(C)C[C@H]1CCn2c(c(C3=C(c4cn(C)c5ccccc45)C(=O)NC3=O)c3ccccc32)C1 [RO0320432-000]	nM	311

----------
Consider the following molecules and their measured potency estimated from few doses readings.
System: PIK3CD
Set-up: species or system human, MV4-11 + K-562 + COLO205 + SK-N-BE2 + OVCAR-8
Conditions: read-out: apparent Kd; compound concentrations:100 nM and 1000 nM (sheet 'Samples'); n = 1
MEASUREMENT TYPE: potency estimated from few doses (nM)

MOLECULE	MEASUREMENT TYPE	REPORTED MEASUREMENT
Cc1nn2c(=O)cc(N3CCOCC3)nc2n1Cc1cccc(Cl)c1Cl [GSK2342769A]	potency estimated from few doses	87.6
C[C@H]1CC[C@@H](C(=O)Nc2ccccc2)CN1c1cc(-c2ccc3c(N)n[nH]c3c2)nc(N)n1 [GSK2283293_KCGS]	potency estimated from few doses	168
C[C@@H](Oc1cc(-n2cnc3ccc(OCC4CCN(C)CC4)cc32)sc1C(N)=O)c1ccccc1Cl [GSK571989A]	potency estimated from few doses	185
COC(=O)Nc1nc2cc(Oc3ccc(NC(=O)Nc4cc(F)ccc4F)cc3)ccc2[nH]1.Cl [GW701424A]	potency estimated from few doses	11.2

----------
Test system: BUB1
Parameters: species or system human, MV4-11 + K-562 + COLO205 + SK-N-BE2 + OVCAR-8
Conditions: read-out: apparent Kd; compound concentrations:100 nM and 1000 nM (sheet 'Samples'); n = 1

MOLECULE	UNIT ANNOTATION	potency estimated from few doses
CS(=O)(=O)Cc1ccc(Nc2nccc(-c3c(-c4cccc(NC(=O)C5CCCCC5)c4)nn4ncccc34)n2)cc1 [GSK350559A]	nM	267
Nc1nc(Nc2ccccc2)cc(-c2ccc3c(N)n[nH]c3c2)n1 [GSK2225749A]	nM	1900
CC(C)N1CCC(n2cnc(-c3ccc(F)cc3)c2-c2ccnc(N)n2)CC1	nM	1670
CC(C)Oc1ccc2c(-c3ccnc(Nc4ccc(N5CCN(C)CC5)cc4)n3)cnn2n1 [GW696155X]	nM	853
O=C1NC(=O)C(N2CCc3ccccc32)=C1c1ccccc1Cl	nM	1690
CC(C)c1nc(-c2ccc(F)c(NS(=O)(=O)c3c(F)cccc3F)c2)c(-c2ccnc(Nc3ccc(N4CCOCC4)nc3)n2)s1 [GSK1804250A]	nM	553
CNc1nccc(-c2c(-c3ccc(F)cc3)ncn2C2CCN(C)CC2)n1	nM	1920
Fc1ccc(-c2c(-c3ccncc3)[nH]c3nccnc23)cc1	nM	1970
Cl.Oc1cccc(-c2nc(-c3ccccc3)[nH]c2-c2ccncc2)c1	nM	2530
CS(=O)(=O)CCn1c(=O)c(Oc2ccc(F)cc2F)cc2cnc(NC3CCOCC3)nc21	nM	1490

----------
Test system: MET
Design: species or system human, MV4-11 + K-562 + COLO205 + SK-N-BE2 + OVCAR-8
Conditions: read-out: apparent Kd; compound concentrations:100 nM and 1000 nM (sheet 'Samples'); n = 1

MOLECULE	potency estimated from few doses [nM]
CS(=O)(=O)Cc1ccc(Nc2nccc(-c3c(-c4cccc(NC(=O)C5CCCCC5)c4)nn4ncccc34)n2)cc1 [GSK350559A]	1780
CNC(=O)c1ccccc1Nc1nc(Nc2ccc(N3CCOCC3)cc2)ncc1Cl.Cl [GSK1576028A]	68.1
Nc1nc(-c2ccc3c(N)n[nH]c3c2)cc(N2CCCC(NC(=O)c3ccccc3)C2)n1 (stereo not shown) [GSK2286775B]	2250
CN1CCN(C(=O)c2ccc(NC(=O)Nc3ccc(N(C)c4ccnc(Nc5ccc(CS(C)(=O)=O)cc5)n4)cc3)cc2)CC1.Cl [GW830263A]	2330

----------
Documented potency estimated from few doses across a set of compounds
Test system: IRAK3
Parameters: species or system human, MV4-11 + K-562 + COLO205 + SK-N-BE2 + OVCAR-8
Conditions: read-out: apparent Kd; compound concentrations:100 nM and 1000 nM (sheet 'Samples'); n = 1
MEASUREMENT TYPE: potency estimated from few doses (nM)

COMPOUND	REPORTED MEASUREMENT
Cc1cccc(Nc2nc(N[C@H]3CCNC3)ncc2C(N)=O)c1.Cl [GSK2197149A]	1280
CNC(=O)c1ccccc1Nc1nc(Nc2ccc(N3CCOCC3)cc2)ncc1Cl.Cl [GSK1576028A]	3.81
CN(C)CC(O)COc1ccc(Nc2nccc(-c3cnn4nc(N5CCOCC5)ccc34)n2)cc1 (centres unmarked) [GW767488X]	64.8
COc1ccc(-c2oc3ncnc(N)c3c2-c2ccc(OC)cc2)cc1 [SB-589132]	1120
CCn1c(=O)c(Oc2ccc(F)cc2F)cc2cnc(NC3CCOCC3)nc21 [RO4367438-000]	1240
